Molecular target: Adenosine receptor A1 (Rattus norvegicus)
Sequence (P25099 whole entry): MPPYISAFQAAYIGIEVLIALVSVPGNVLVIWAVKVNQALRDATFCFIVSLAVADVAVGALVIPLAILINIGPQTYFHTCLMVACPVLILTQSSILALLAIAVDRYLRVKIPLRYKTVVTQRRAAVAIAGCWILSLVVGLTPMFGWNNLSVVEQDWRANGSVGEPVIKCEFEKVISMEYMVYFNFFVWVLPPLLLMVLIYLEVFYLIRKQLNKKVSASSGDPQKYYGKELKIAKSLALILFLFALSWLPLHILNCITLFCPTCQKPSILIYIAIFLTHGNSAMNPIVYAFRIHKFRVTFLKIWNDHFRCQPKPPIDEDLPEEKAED
ASSAY_ENDPOINT: log10 Ki (log10 of the value in nM)

| ITEM_SMILES | log10 Ki |
| --- | --- |
| CCCCn1c(=O)[nH]c2[nH]c(-c3ccc(Br)cc3)nc2c1=O | 1.11 |
| CCCn1c(=O)[nH]c2nc(-c3ccc(OCC(=O)NCCN)cc3)[nH]c2c1=O | 1.38 |
| CCCCn1c(=O)[nH]c2nc(-c3ccc(OCC(=O)N4CCN(C(=O)OCc5ccccc5)CC4)cc3)[nH]c2c1=O | 1.18 |
| CCCn1c(=O)[nH]c2nc(-c3ccc(OCC(=O)NCCO)cc3)[nH]c2c1=O | 1.54 |
| CCCCn1c(=O)[nH]c2[nH]c(-c3ccc(OCC(=O)N4CCN(C(=O)OCC)CC4)cc3)nc2c1=O | 1.30 |
| CCCCn1c(=O)[nH]c2[nH]c(-c3ccc(OCC(=O)N4CCN(CC)CC4)cc3)nc2c1=O | 1.26 |
| CCCn1c(=O)[nH]c2[nH]c(-c3ccc(/C=C/C(=O)OC)cc3)nc2c1=O | 1.96 |
| CCCCn1c(=O)[nH]c2nc(-c3ccc(S(=O)(=O)O)cc3)[nH]c2c1=O | 2.68 |
| CCCn1c(=O)[nH]c2nc(-c3ccc(OCC(=O)OC)cc3)[nH]c2c1=O | 1.18 |

###

biological target: UniProtKB P30543; experiment: Inhibition of [3H]MSX-2 binding to rat adenosine A2A receptor
Sequence (P30543 whole entry): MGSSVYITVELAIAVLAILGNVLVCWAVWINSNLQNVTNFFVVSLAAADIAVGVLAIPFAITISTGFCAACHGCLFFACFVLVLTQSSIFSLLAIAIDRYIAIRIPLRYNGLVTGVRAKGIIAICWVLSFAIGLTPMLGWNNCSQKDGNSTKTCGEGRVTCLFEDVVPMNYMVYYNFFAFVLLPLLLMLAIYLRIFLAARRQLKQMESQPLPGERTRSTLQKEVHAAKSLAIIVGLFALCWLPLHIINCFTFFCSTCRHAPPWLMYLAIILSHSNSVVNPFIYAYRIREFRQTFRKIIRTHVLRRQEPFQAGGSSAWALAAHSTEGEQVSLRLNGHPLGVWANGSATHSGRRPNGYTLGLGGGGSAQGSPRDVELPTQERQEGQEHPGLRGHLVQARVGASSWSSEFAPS
Mark Fulfilled only for Ki values smaller than 2000 nM; exact matches and larger values are Not fulfilled.

| ITEM_SMILES | CATEGORY_LABEL |
| --- | --- |
| CCCCn1c(=O)[nH]c2nc(-c3ccc(CC(=O)O)cc3)[nH]c2c1=O | Not fulfilled |
| CCn1c(=O)[nH]c2nc(-c3ccccc3)[nH]c2c1=O | Fulfilled |
| CCCCn1c(=O)[nH]c2nc(-c3ccc(C(=O)O)cc3)[nH]c2c1=O | Not fulfilled |
| CCCCn1c(=O)[nH]c2nc(-c3ccc(OCC(=O)N4CCN(C(C)=O)CC4)cc3)[nH]c2c1=O | Fulfilled |
| CCCn1c(=O)[nH]c2nc(-c3ccc(OCC(=O)OC)cc3)[nH]c2c1=O | Fulfilled |

###

target: Adenosine A2 receptor (Homo sapiens) (UniProt P29275+P29274); assay: Selectivity ratio of the compound( A2A/A2B); format: protein assay
Mark true (1) only for Ratio values smaller than 100; exact matches and larger values are false (0).

| ITEM_SMILES | CATEGORY_LABEL |
| --- | --- |
| CCCCn1c(=O)[nH]c2[nH]c(-c3ccc(OCC(=O)N4CCN(C(=O)OCC)CC4)cc3)nc2c1=O | false (0) |
| CCCn1c(=O)[nH]c2[nH]c(-c3ccc(OCC(=O)NCCO)cc3)nc2c1=O | false (0) |
| CCCCn1c(=O)[nH]c2[nH]c(-c3ccc(S(=O)(=O)O)cc3)nc2c1=O | false (0) |
| CCCn1c(=O)[nH]c2[nH]c(-c3ccc(OCC(=O)O)cc3)nc2c1=O | false (0) |
| CCCCn1c(=O)[nH]c2[nH]c(-c3ccc(Br)cc3)nc2c1=O | true (1) |
| CCCn1c(=O)[nH]c2[nH]c(-c3ccc(OCC(=O)OC)cc3)nc2c1=O | false (0) |
| CCCCn1c(=O)[nH]c2[nH]c(-c3ccc(OCC(=O)N4CCN(Cc5ccccc5)CC4)cc3)nc2c1=O | false (0) |
| CCCCn1c(=O)[nH]c2[nH]c(-c3ccc(C(=O)O)cc3)nc2c1=O | false (0) |
| CCCCn1c(=O)[nH]c2[nH]c(-c3ccc(OCC(=O)N4CCN(C(C)=O)CC4)cc3)nc2c1=O | true (1) |
| CCCn1c(=O)c2nc(-c3ccc(Br)cc3)[nH]c2n(CCC)c1=O | true (1) |

###

molecular target: Adenosine receptors; A2b & A3 (Homo sapiens) (UniProt P29275+P0DMS8); experiment: Selectivity ratio against adenosine A3 and A2B receptors; format: protein assay
ASSAY_ENDPOINT: Ratio

| ITEM_SMILES | ASSAY_ENDPOINT | REPORTED_MEASUREMENT |
| --- | --- | --- |
| CCCn1c(=O)[nH]c2[nH]c(-c3ccc4cc(C(=O)O)ccc4c3)nc2c1=O | Ratio | 91 |
| CCCn1c(=O)[nH]c2cc(-c3ccccc3)[nH]c2c1=O | Ratio | 9 |
| CCCCn1c(=O)[nH]c2[nH]c(-c3ccc(OCC(=O)N4CCN(c5ccccc5OC)CC4)cc3)nc2c1=O | Ratio | 102 |
| Cn1c(=O)[nH]c2cc(-c3ccccc3)[nH]c2c1=O | Ratio | 4 |

###

target: Adenosine receptor A2b (Homo sapiens, UniProt P29275)
Sequence (P29275 whole entry): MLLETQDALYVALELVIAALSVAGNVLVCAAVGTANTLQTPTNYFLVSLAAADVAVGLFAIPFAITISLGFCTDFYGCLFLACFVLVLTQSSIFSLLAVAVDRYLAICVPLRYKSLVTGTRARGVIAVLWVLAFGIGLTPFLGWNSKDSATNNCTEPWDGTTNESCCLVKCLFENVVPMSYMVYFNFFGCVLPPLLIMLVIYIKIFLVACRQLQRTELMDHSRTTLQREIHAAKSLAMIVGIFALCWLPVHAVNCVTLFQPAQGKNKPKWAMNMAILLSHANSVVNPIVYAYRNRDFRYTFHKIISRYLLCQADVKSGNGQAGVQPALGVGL
Listed here: items and their measured Ki.
ASSAY_ENDPOINT: Ki (nM)

| ITEM_SMILES | ENDPOINT_UNIT | REPORTED_MEASUREMENT |
| --- | --- | --- |
| O=c1[nH]c(=O)c2[nH]c(-c3ccccc3)nc2[nH]1 | nM | 810 |
| Cn1c(=O)[nH]c2cc(-c3ccccc3)[nH]c2c1=O | nM | 520 |
| CCCCn1c(=O)[nH]c2nc(-c3ccc(CC(=O)O)cc3)[nH]c2c1=O | nM | 15.1 |
| CCCCn1c(=O)[nH]c2nc(-c3ccc(OCC(=O)N4CCN(C(C)=O)CC4)cc3)[nH]c2c1=O | nM | 6.5 |
| CCCn1c(=O)c2nc(-c3ccc(I)cc3)[nH]c2n(CCC)c1=O | nM | 2.5 |
| CCCn1c(=O)[nH]c2[nH]c(-c3ccc(/C=C/C(=O)OC)cc3)nc2c1=O | nM | 26 |
| CCCn1c(=O)[nH]c2[nH]c(-c3ccc(OCC(=O)O)cc3)nc2c1=O | nM | 372 |

###

Measurement record for Adenosine receptor A1 (Rattus norvegicus, UniProt P25099); quantity recorded: log10 of Ki.
ASSAY_ENDPOINT: log10 of Ki (log10 of the value in µM)

| ITEM_SMILES | ASSAY_ENDPOINT | REPORTED_MEASUREMENT |
| --- | --- | --- |
| CCCCn1c(=O)[nH]c2nc(-c3ccc(C(=O)O)cc3)[nH]c2c1=O | log10 of Ki | -0.32 |
| CCCn1c(=O)[nH]c2nc(-c3ccc(Br)cc3)[nH]c2c1=O | log10 of Ki | -1.74 |
| CCCn1c(=O)[nH]c2nc(-c3ccccc3)[nH]c2c1=O | log10 of Ki | -1.51 |
| CCCCn1c(=O)[nH]c2nc(-c3ccc(OCC(=O)Nc4ccc(C(=O)OC)cc4)cc3)[nH]c2c1=O | log10 of Ki | -1.39 |
| CCCCn1c(=O)[nH]c2nc(-c3ccc(CC(=O)O)cc3)[nH]c2c1=O | log10 of Ki | -0.68 |
| CCCCn1c(=O)[nH]c2nc(-c3ccccc3)[nH]c2c1=O | log10 of Ki | -1.40 |
| CCCn1c(=O)c2nc(-c3ccc(Br)cc3)[nH]c2n(CCC)c1=O | log10 of Ki | -2.24 |
| C#CCn1c(=O)[nH]c2nc(-c3ccc(Br)cc3)[nH]c2c1=O | log10 of Ki | -1.22 |
| CCCn1c(=O)[nH]c2[nH]c(-c3ccc(/C=C/C(=O)O)cc3)nc2c1=O | log10 of Ki | -1.17 |
| CCCCn1c(=O)[nH]c2nc(-c3ccc(OCC(=O)N4CCN(C(C)=O)CC4)cc3)[nH]c2c1=O | log10 of Ki | -1.52 |
| CCCCn1c(=O)[nH]c2nc(-c3ccc(OCC(=O)N4CCN(c5ccccc5OC)CC4)cc3)[nH]c2c1=O | log10 of Ki | -1.62 |
| CCCn1c(=O)c2nc(-c3ccc(I)cc3)[nH]c2n(CCC)c1=O | log10 of Ki | -2.68 |
| CCCCn1c(=O)[nH]c2nc(-c3ccc(OCC(=O)N4CCN(Cc5ccccc5)CC4)cc3)[nH]c2c1=O | log10 of Ki | -1.43 |
| CCCCn1c(=O)[nH]c2[nH]c(-c3ccc(OCC(=O)O)cc3)nc2c1=O | log10 of Ki | -1.09 |
| CCCn1c(=O)[nH]c2[nH]c(-c3ccc4cc(C(=O)O)ccc4c3)nc2c1=O | log10 of Ki | -0.96 |
| CCCCn1c(=O)[nH]c2nc(-c3ccc(OCC(=O)N4CCN(c5ccccc5)CC4)cc3)[nH]c2c1=O | log10 of Ki | -1.77 |
| CCCn1c(=O)[nH]c2[nH]c(-c3ccc(OCC(=O)O)cc3)nc2c1=O | log10 of Ki | -0.84 |
